# Ki per entry for human σ1 receptor (Homo sapiens, UniProt Q99720)

Past entries and their recorded results:
Molecule	Ki
Cc1cc(-c2nn(C)c(Cl)c2CN2CCCCC(N(C)CCC(C)C)C2)no1 (centres unmarked) [Example 80]	100 to 500 nM
CCn1nc(-c2cc(C)on2)c(C(=O)N[C@H]2CCN(CCC(C)(C)C)C2)c1Cl [Example 164]	< 100 nM

Value sought: Ki, system human σ1 receptor (Homo sapiens, UniProt Q99720), item Cc1cc(-c2nn(C)c(Cl)c2CN2CCC3(CCN(CCC(C)(C)C)C3)C2)no1 (centres unmarked) [Example 54] . Result: < 100 nM

Value sought: Ki, system human σ1 receptor (Homo sapiens, UniProt Q99720), item Cc1conc1-c1nn(C)c(Cl)c1CN1CCCCC(NCCC(C)C)C1 (centres unmarked) [Example 28] . Result: 100 to 500 nM

Value sought: Ki, system human σ1 receptor (Homo sapiens, UniProt Q99720), item Cn1nc(-c2cc(C3CC3)on2)c(CN2CCCCC(NCCC(C)(C)C)C2)c1Cl (centres unmarked) [Example 16] . Result: 100 to 500 nM

Where these numbers come from: patent US20240239781A1
